# Test system: K24384-001-R-PDC complex spheroid growth
# protocol: Anticancer human tumor K24384-001-R-PDC patient-derived pancreatic adenocarcinoma cell line growth inhibition [AhR]
# condition set: curve of first compound; second compound 0.1 µM
result type: IC50

Query: Give the measured IC50 of Nc1ncn(C2CC(O)C(CO)S2)c(=O)n1 (configuration not stated) + Cc1ccccc1N=Nc1ccc(NC(=O)c2ccnn2C)c(C)c1 .
Reply: > 0.3 µM

###

Below, each of the compounds is paired with its reported viability, T/C value.
# Test system: K24384-001-R-PDC complex spheroid growth
# protocol: Anticancer human tumor K24384-001-R-PDC cell line growth inhibition [AhR];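 as to viability, T/C: percent of DMSO vehicle-treated spheroid viability set as 100%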
# condition set: second compound 10 µM; first compound 3 µM; stronger effect = lower value
Your answer should be a plain number; it is taken to be in %.

CCN(c1cc(-c2ccc(CN3CCOCC3)cc2)cc(C(=O)NCc2c(C)cc(C)[nH]c2=O)c1C)C1CCOCC1 + Cc1ccccc1N=Nc1ccc(NC(=O)c2ccnn2C)c(C)c1; 110
CCN(c1cc(-c2ccc(CN3CCOCC3)cc2)cc(C(=O)NCc2c(C)cc(C)[nH]c2=O)c1C)C1CCOCC1 + CC(CO)NC(=O)c1cc(-c2ccc(Cl)cc2)nn(-c2cnn(C)c2)c1=O; 102
O=C(C=Cn1cnc(-c2cc(C(F)(F)F)cc(C(F)(F)F)c2)n1)NNc1cnccn1 + Cc1cncc(-c2nc(NCCc3c[nH]c4ccccc34)c3ncn(C(C)C)c3n2)c1; 12.8
CCN(c1cc(-c2ccc(CN3CCOCC3)cc2)cc(C(=O)NCc2c(C)cc(C)[nH]c2=O)c1C)C1CCOCC1 + Cc1cncc(-c2nc(NCCc3c[nH]c4ccccc34)c3ncn(C(C)C)c3n2)c1; 8.09

Please turn your attention to the following entry.
Query: Request the reported viability, T/C associated with O=C(C=Cn1cnc(-c2cc(C(F)(F)F)cc(C(F)(F)F)c2)n1)NNc1cnccn1 + CC(CO)NC(=O)c1cc(-c2ccc(Cl)cc2)nn(-c2cnn(C)c2)c1=O
Reply: 27.3

###

Here, each record is paired with measured viability, T/C data.
# Test system: K24384-001-R-PDC complex spheroid growth
# protocol: Anticancer human tumor K24384-001-R-PDC cell line growth inhibition [AhR];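 as to viability, T/C: percent of DMSO vehicle-treated spheroid viability set as 100%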
# condition set: second compound 0.316 µM; first compound 3.16 µM; stronger effect = lower value
Use % as the unit, but write only the number.

COc1cc(Nc2ncc3c(n2)-c2ccc(Cl)cc2C(c2c(F)cccc2OC)=NC3)ccc1C(=O)O + CC(CO)NC(=O)c1cc(-c2ccc(Cl)cc2)nn(-c2cnn(C)c2)c1=O; 48.4

Query: Give its viability, T/C value. Item: CC(C)c1c(-c2ccccc2)nc2c(C#N)c[nH]n2c1=O + CC(CO)NC(=O)c1cc(-c2ccc(Cl)cc2)nn(-c2cnn(C)c2)c1=O
Reply: 73

Query: Which viability, T/C is reported for this compound? NS(=O)(=O)OCC1CC(n2ccc3c(NC4CCc5ccccc54)ncnc32)CC1O (centres undefined) + Cc1cncc(-c2nc(NCCc3c[nH]c4ccccc34)c3ncn(C(C)C)c3n2)c1
Reply: 24

Query: Reported viability, T/C, compound CC1COCCN1c1cc(C2(S(C)(=N)=O)CC2)nc(-c2ccnc3[nH]ccc23)n1 (centres undefined) + CC(CO)NC(=O)c1cc(-c2ccc(Cl)cc2)nn(-c2cnn(C)c2)c1=O : ____
Reply: 52.7

Query: Please report the recorded viability, T/C for O=C(c1cc(Cc2n[nH]c(=O)c3ccccc23)ccc1F)N1CCN(C(=O)C2CC2)CC1 + Cc1ccccc1N=Nc1ccc(NC(=O)c2ccnn2C)c(C)c1 .
Reply: 85.8

Query: Which viability, T/C value belongs to Nc1ccccc1NC(=O)c1ccc(CNC(=O)OCc2cccnc2)cc1 + Cc1ccccc1N=Nc1ccc(NC(=O)c2ccnn2C)c(C)c1 ?
Reply: 32.3

###

Collected pIC50 values appear next to each entry.
# System: K24384-001-R-PDC complex spheroid growth
# protocol: Anticancer human tumor K24384-001-R-PDC cell line growth inhibition [AhR]
# condition set: curve of first compound; second compound 0.1 µM
pIC50: −log10 of the molar value.

Field: example entries. Status: answers known.
CC1(C)CCC(CN2CCN(c3ccc(C(=O)NS(=O)(=O)c4ccc(NCC5CCOCC5)c([N+](=O)[O-])c4)c(Oc4cnc5[nH]ccc5c4)c3)CC2)=C(c2ccc(Cl)cc2)C1 + CC(CO)NC(=O)c1cc(-c2ccc(Cl)cc2)nn(-c2cnn(C)c2)c1=O; < 5.00
CC1COCCN1c1cc(C2(S(C)(=N)=O)CC2)nc(-c2ccnc3[nH]ccc23)n1 (stereo not drawn) + CC(CO)NC(=O)c1cc(-c2ccc(Cl)cc2)nn(-c2cnn(C)c2)c1=O; < 5.00

Please examine the following record next.
Query: Any idea what its pIC50 is? The compound is CCN(c1cc(-c2ccc(CN3CCOCC3)cc2)cc(C(=O)NCc2c(C)cc(C)[nH]c2=O)c1C)C1CCOCC1 + Cc1ccccc1N=Nc1ccc(NC(=O)c2ccnn2C)c(C)c1
Reply: < 5.52

###

# Tested on: K24384-001-R-PDC complex spheroid growth
# protocol: Anticancer human tumor K24384-001-R-PDC cell line growth inhibition [AhR];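 as to viability, T/C: percent of DMSO vehicle-treated spheroid viability set as 100%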
# condition set: second compound 0.1 µM; first compound 1 µM; stronger effect = lower value
result type: viability, T/C (%)
// note: answer is a bare numeric in %

NS(=O)(=O)OCC1CC(n2ccc3c(NC4CCc5ccccc54)ncnc32)CC1O (stereo unspecified) + Cc1ccccc1N=Nc1ccc(NC(=O)c2ccnn2C)c(C)c1; 47.4
NS(=O)(=O)OCC1CC(n2ccc3c(NC4CCc5ccccc54)ncnc32)CC1O (stereo unspecified) + Cc1cncc(-c2nc(NCCc3c[nH]c4ccccc34)c3ncn(C(C)C)c3n2)c1; 107
CC(C)c1c(-c2ccccc2)nc2c(C#N)c[nH]n2c1=O + Cc1ccccc1N=Nc1ccc(NC(=O)c2ccnn2C)c(C)c1; 108
CC1COCCN1c1cc(C2(S(C)(=N)=O)CC2)nc(-c2ccnc3[nH]ccc23)n1 (stereo unspecified) + Cc1ccccc1N=Nc1ccc(NC(=O)c2ccnn2C)c(C)c1; 70.1
Nc1ncn(C2CC(O)C(CO)O2)c(=O)n1 (stereo unspecified) + Cc1ccccc1N=Nc1ccc(NC(=O)c2ccnn2C)c(C)c1; 68.8

We now examine a further molecule.
Query: Return viability, T/C measured with K24384-001-R-PDC complex spheroid growth given this molecule: Nc1ncn(C2CC(O)C(CO)O2)c(=O)n1 (stereo unspecified) + Cc1cncc(-c2nc(NCCc3c[nH]c4ccccc34)c3ncn(C(C)C)c3n2)c1
Reply: 51.1

###

# System: K24384-001-R-PDC complex spheroid growth
# protocol: Anticancer human tumor K24384-001-R-PDC cell line growth inhibition [AhR]
# condition set: curve of first compound; second compound 0.1 µM
pIC50: −log10 of the molar value.
result type: pIC50

COc1ccc([C@@H](O)c2cc(-c3ncnc4cc(N5CCOCC5)ccc34)c(F)cc2Cl)nn1 + Cc1cncc(-c2nc(NCCc3c[nH]c4ccccc34)c3ncn(C(C)C)c3n2)c1; 5.36
Nc1ccccc1NC(=O)c1ccc(CNC(=O)OCc2cccnc2)cc1 + Cc1ccccc1N=Nc1ccc(NC(=O)c2ccnn2C)c(C)c1; 5.74

P: O=C(C=Cn1cnc(-c2cc(C(F)(F)F)cc(C(F)(F)F)c2)n1)NNc1cnccn1 + Cc1ccccc1N=Nc1ccc(NC(=O)c2ccnn2C)c(C)c1
Q: Nc1ccn(C2OC(CO)C(O)C2(F)F)c(=O)n1 (stereo not given) + Cc1ccccc1N=Nc1ccc(NC(=O)c2ccnn2C)c(C)c1
Query: Select one. Lower pIC50: P or Q Record your answer as the label of the chosen record.
Reply: P

###

Reported values of viability, T/C for individual entries
# Test system: K24384-001-R-PDC complex spheroid growth
# protocol: Anticancer human tumor K24384-001-R-PDC cell line growth inhibition [AhR];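 as to viability, T/C: percent of DMSO vehicle-treated spheroid viability set as 100%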
# condition set: second compound 0.1 µM; first compound 0.3 µM; stronger effect = lower value
Please respond with the number in % and leave the unit unwritten.

Field: example entries. Status: answers known.
CC(C)CC(NC(=O)C(Cc1ccccc1)NC(=O)c1cnccn1)B(O)O (stereo not drawn) + Cc1cncc(-c2nc(NCCc3c[nH]c4ccccc34)c3ncn(C(C)C)c3n2)c1; 0.56
Nc1ncn(C2CC(O)C(CO)S2)c(=O)n1 (stereo not drawn) + Cc1ccccc1N=Nc1ccc(NC(=O)c2ccnn2C)c(C)c1; 57.8

Now look at this one.
Query: Requested read-out: viability, T/C. Entry: CC(C)CC(NC(=O)C(Cc1ccccc1)NC(=O)c1cnccn1)B(O)O (stereo not drawn) + CC(CO)NC(=O)c1cc(-c2ccc(Cl)cc2)nn(-c2cnn(C)c2)c1=O
Reply: 0.34

###

Consider the following molecules and their measured viability, T/C readings.
# System: K24384-001-R-PDC complex spheroid growth
# protocol: Anticancer human tumor K24384-001-R-PDC cell line growth inhibition [AhR];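 as to viability, T/C: percent of DMSO vehicle-treated spheroid viability set as 100%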
# condition set: second compound 1 µM; first compound 0.03 µM; stronger effect = lower value
# number only, unit % dropped from output

CCN(c1cc(-c2ccc(CN3CCOCC3)cc2)cc(C(=O)NCc2c(C)cc(C)[nH]c2=O)c1C)C1CCOCC1 + CC(CO)NC(=O)c1cc(-c2ccc(Cl)cc2)nn(-c2cnn(C)c2)c1=O; 139
CCc1c2c(nc3ccc(O)cc13)-c1cc3c(c(=O)n1C2)COC(=O)[C@]3(O)CC + Cc1cncc(-c2nc(NCCc3c[nH]c4ccccc34)c3ncn(C(C)C)c3n2)c1; 32
Nc1ncn(C2CC(O)C(CO)S2)c(=O)n1 (stereo unspecified) + CC(CO)NC(=O)c1cc(-c2ccc(Cl)cc2)nn(-c2cnn(C)c2)c1=O; 125
Nc1ncn(C2CC(O)C(CO)S2)c(=O)n1 (stereo unspecified) + Cc1cncc(-c2nc(NCCc3c[nH]c4ccccc34)c3ncn(C(C)C)c3n2)c1; 129
O=C(C=Cn1cnc(-c2cc(C(F)(F)F)cc(C(F)(F)F)c2)n1)NNc1cnccn1 + Cc1cncc(-c2nc(NCCc3c[nH]c4ccccc34)c3ncn(C(C)C)c3n2)c1; 111

We next turn to a different molecule, shown below.
Query: Given CCN(c1cc(-c2ccc(CN3CCOCC3)cc2)cc(C(=O)NCc2c(C)cc(C)[nH]c2=O)c1C)C1CCOCC1 + Cc1ccccc1N=Nc1ccc(NC(=O)c2ccnn2C)c(C)c1 , state its recorded viability, T/C.
Reply: 134
